Target: Transglutaminase 2 (TG2) (Homo sapiens, UniProt P21980)
Construct: gene TGM2; N-terminal six-histidine tagged human TG2
Sequence (P21980 whole entry): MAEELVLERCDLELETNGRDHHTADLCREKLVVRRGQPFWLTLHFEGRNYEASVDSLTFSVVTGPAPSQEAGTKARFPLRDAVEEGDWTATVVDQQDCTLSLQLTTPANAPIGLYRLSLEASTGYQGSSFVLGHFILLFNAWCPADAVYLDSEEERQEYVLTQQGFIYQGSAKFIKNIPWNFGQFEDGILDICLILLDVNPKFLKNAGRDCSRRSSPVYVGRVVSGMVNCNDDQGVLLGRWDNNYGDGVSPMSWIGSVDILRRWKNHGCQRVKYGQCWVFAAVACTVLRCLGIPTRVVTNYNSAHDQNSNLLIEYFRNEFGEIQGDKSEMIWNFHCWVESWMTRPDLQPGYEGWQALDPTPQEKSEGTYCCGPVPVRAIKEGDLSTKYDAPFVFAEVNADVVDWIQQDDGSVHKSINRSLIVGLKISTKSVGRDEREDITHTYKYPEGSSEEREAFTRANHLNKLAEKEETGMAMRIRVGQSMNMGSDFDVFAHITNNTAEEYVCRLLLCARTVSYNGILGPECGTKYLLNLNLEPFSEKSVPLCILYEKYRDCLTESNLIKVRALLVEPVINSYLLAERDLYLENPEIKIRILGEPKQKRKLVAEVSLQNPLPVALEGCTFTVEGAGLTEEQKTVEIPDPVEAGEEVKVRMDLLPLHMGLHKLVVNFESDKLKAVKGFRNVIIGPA
Assay: biochemical
Design: inhibition of TG2 protein crosslinking activity, gel-based read-out
Excerpt: (the LM-series, Fig. S6).
pIC50: −log10 of the molar value.
readout: pIC50

| structure_string | reported_result |
| --- | --- |
| O=C1NC(=O)N(c2cccc(Cl)c2)C(=O)/C1=C/Nc1ccc(Cl)c(CN2C(=O)c3ccccc3C2=O)c1 | 5.00 |
